Where do these numbers come from? They come from paper PMC5501724.

# Test system: T1, His6-HD-PTP_(Bro1-CC) (1-714), bacterially expressed (human, UniProt Q9H3S7 1-714)
# T1 construct: HD-PTP/PTPN23, Bro1 and coiled-coil domains, residues 1-714; also called His-HD-PTP; source: E. coli BL21 (DE3), purified (Nickel-beads, MonoQ, Superdex 200); not shown: His6, N-terminal, kept
# T1 sequence (looked up): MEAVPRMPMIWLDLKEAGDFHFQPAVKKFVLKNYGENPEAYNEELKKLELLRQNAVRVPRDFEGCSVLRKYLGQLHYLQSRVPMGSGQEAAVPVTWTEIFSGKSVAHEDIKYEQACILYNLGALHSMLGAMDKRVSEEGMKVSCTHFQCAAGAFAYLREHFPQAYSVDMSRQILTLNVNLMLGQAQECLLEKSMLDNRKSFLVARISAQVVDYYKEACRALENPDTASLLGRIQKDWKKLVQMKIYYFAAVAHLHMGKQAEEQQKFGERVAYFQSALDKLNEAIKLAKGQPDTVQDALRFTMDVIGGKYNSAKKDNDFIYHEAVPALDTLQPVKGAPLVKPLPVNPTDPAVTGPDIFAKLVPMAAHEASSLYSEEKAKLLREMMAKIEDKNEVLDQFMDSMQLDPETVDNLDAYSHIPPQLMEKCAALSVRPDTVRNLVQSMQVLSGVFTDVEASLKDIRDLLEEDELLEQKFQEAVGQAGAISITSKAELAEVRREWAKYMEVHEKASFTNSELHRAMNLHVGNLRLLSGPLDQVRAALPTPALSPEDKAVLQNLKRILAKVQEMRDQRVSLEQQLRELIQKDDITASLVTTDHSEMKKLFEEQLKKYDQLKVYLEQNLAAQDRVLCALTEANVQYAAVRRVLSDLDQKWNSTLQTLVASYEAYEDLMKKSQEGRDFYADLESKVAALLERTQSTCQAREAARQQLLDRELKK
# Measurement notes: SPR; ProteOn XPR36; His6-tagged proteins immobilised on a HTE chip (5000-8000 RU); synthetic peptides as analytes, five concentrations; 10 mM HEPES pH 7.4, 150 mM NaCl, 0.05% Tween 20; 25°C; equilibrium binding fit
# Cond: both partners purified
Experimental endpoint: Kd (µM)
Numbers only, in µM.

*Q* Could you tell me which Kd is on file for MDSYFKAAVSDLDKLLDDFEQN (peptide, UniProt Q7Z3T8 1-22, looked up, human endofin, first 22 residues; begins 1-MDSYF-5; also called endofin peptide; endofin_(1-22) (WT); source: synthetic peptide (Generon Ltd, UK)) [endofin 22-mer peptide (first 22 residues of endofin)] ?
*A* 2.7
